biological target: CaFus1; test: SPOT peptide array binding signal intensity (averaged, normalized) (arbitrary units (background-subtracted, floor 0; scale differs between SH3 domains)); higher = stronger binding of the SH3 domain to the peptide
Entry flag: fulfilled if SPOT peptide array binding signal intensity reaches 100; not fulfilled if it does not.

Solved cases (5 shown):
>>> print(df.to_string())
            binder  classification
0  ATKSASPTLPTRRSR   not fulfilled
1  SHRLWLYAAPKRPKT       fulfilled
2  PSPSSSPPPIPKTAN   not fulfilled
3  VGFRLALKFPSRITG       fulfilled
4  DLFKPLPEPPTELGR   not fulfilled

Dear colleague, could you confirm whether PLQSKIPMLPSRRTM has SPOT peptide array binding signal intensity at or above 100? fulfilled

Dear colleague, could you confirm whether RLSRLLLSLPPESFT has SPOT peptide array binding signal intensity at or above 100? fulfilled

Dear colleague, could you confirm whether VPVAPPPPPASLGQS has SPOT peptide array binding signal intensity at or above 100? not fulfilled

Dear colleague, could you confirm whether NVLRKILEIPLHSFS has SPOT peptide array binding signal intensity at or above 100? fulfilled

Dear colleague, could you confirm whether NFLRLLIGLPSQNEL has SPOT peptide array binding signal intensity at or above 100? fulfilled

Dear colleague, could you confirm whether QQEQNTPPLPPKPKS has SPOT peptide array binding signal intensity at or above 100? not fulfilled

Dear colleague, could you confirm whether RKLRTVPGVPLIHLT has SPOT peptide array binding signal intensity at or above 100? fulfilled

Dear colleague, could you confirm whether QRIRKIPGIPLMSVG has SPOT peptide array binding signal intensity at or above 100? fulfilled

Dear colleague, could you confirm whether PVLPPPRSPNRPTLS has SPOT peptide array binding signal intensity at or above 100? not fulfilled

Dear colleague, could you confirm whether PHNPSPFFPPPDFND has SPOT peptide array binding signal intensity at or above 100? not fulfilled

Dear colleague, could you confirm whether ERPKRRAPPPVPKKP has SPOT peptide array binding signal intensity at or above 100? not fulfilled

Dear colleague, could you confirm whether NNNKMRPHLPPLSSG has SPOT peptide array binding signal intensity at or above 100? fulfilled

Dear colleague, could you confirm whether MAMRPIPPLPTESEY has SPOT peptide array binding signal intensity at or above 100? fulfilled

Dear colleague, could you confirm whether AATTSTPPLPRRRAT has SPOT peptide array binding signal intensity at or above 100? not fulfilled

Dear colleague, could you confirm whether QPPLPSSAPPIPTSH has SPOT peptide array binding signal intensity at or above 100? not fulfilled

Dear colleague, could you confirm whether MSPLGAPPPPPHKDH has SPOT peptide array binding signal intensity at or above 100? not fulfilled

Dear colleague, could you confirm whether SRYRRPLTLLLLKPF has SPOT peptide array binding signal intensity at or above 100? fulfilled

Dear colleague, could you confirm whether HGKRRAPLLLAKLDV has SPOT peptide array binding signal intensity at or above 100? fulfilled
